src = BigSolDB 2.1

- Study Conditions: in ethyl acetate, 340.15 K
Observation Type: solubility (mole fraction)
In your answer, state the number alone without any accompanying words.

Input: Would you kindly share the measured solubility (mole fraction) for CC(C)(C)c1cc(O)c(C(C)(C)C)cc1O ?
Output: 0.188

====

- Study Conditions: in ethyl acetate, 328.15 K
Observation Type: solubility (mole fraction)
In your answer, state the number alone without any accompanying words.

Input: Would you kindly share the measured solubility (mole fraction) for CC(C)(C)c1cc(O)c(C(C)(C)C)cc1O ?
Output: 0.177

====

- Study Conditions: in ethyl acetate, 296.25 K
Observation Type: solubility (mole fraction)
In your answer, state the number alone without any accompanying words.

Input: Would you kindly share the measured solubility (mole fraction) for CC(C)(C)c1cc(O)c(C(C)(C)C)cc1O ?
Output: 0.151
